These entries and their values trace back to PubChem BioAssay (NCI).

Experiment: NCI Yeast Anticancer Drug Screen. Data for the rad50 strain (AID 155)
Conditions: S. cerevisiae rad50 strain growth inhibition; at 5.0 µM (retest, dose inferred, filed as 0.5)
This is part of a sample that, as a whole, favours compounds with a hit. Of some 79,000 tested, about 15% had one in any assay. Activity calls are given as the source filed them. No stated cut-off is given here; in the data, active means growth inhibition above about 70%; inactive means the rest.
Response enum: active, inactive

Cc1nc2c(nc1C)C(=O)c1ccccc1C2=O : inactive
CC1(C)CC(=O)C2=C(C1)OC1=C(CC(C)(C)CC1=O)C2c1ccccc1Cl (centres undefined) : inactive
Cn1c2ccccc2c(=O)c2ccccc21 : inactive
CC(=O)[O-].[O-]c1c(Cl)cc(Cl)cc1/C=N/Nc1ccccn1.[Zn+2] : inactive
CN1C(c2ccccc2)CC(=NO)CC1c1ccccc1 (centres undefined) : inactive
O=C1C(=Cc2ccc(O)cc2)N=C(c2ccccc2)N1n1c(-c2ccccc2)nc2ccccc2c1=O : inactive
Cc1c(N)nc(C(CC(N)=O)NCC(N)C(N)=O)nc1C(=O)NC(C(=O)NC(C)C(O)C(C)C(=O)NC(C(=O)NCCc1nc(-c2nc(C(=O)NCCCNCCCCN)cs2)cs1)C(C)O)C(OC1OC(CO)C(O)C(O)C1OC1OC(CO)C(O)C(OC(N)=O)C1O)c1cnc[nH]1 (centres undefined) : active
CC(C)(S)C(N)C(=O)O (centres undefined) : inactive

Next item in the queue.
Asked: Identify the outcome logged in this assay for the compound shown: C[Si]1(C)CN(CCN)C[Si](C)(C)O1
Given back: inactive
